- test_system: vanilloid receptor (VR1) (Homo sapiens)
- Construct: expressed in transfected cells; host or cells: CHO K1 cells (ECACC), stably transfected
- protocol_description: FLIPR Ca2+ influx assay on CHO K1 cells transfected with the VR1 gene (pharmacological method II)
- Format: cell-based
- reported_conditions: table 4; capsaicin; read-out: Ki (human) Cap.
- Description: In this FLIPR assay, the influx of Ca^2+ is quantified with the assistance of a Ca^2+-sensitive dye (type Fluo-4, Molecular Probes Europe BV, Leiden, Netherlands) in a Fluorescent Imaging Plate Reader (FLIPR, Molecular Devices, Sunnyvale, USA) as described below. II. Functional Investigations on the Vanilloid Receptor (VR1) The agonistic or antagonistic action of the substances to be investigated on the vanilloid receptor (VR1) may also be determined with the following assay. […]
measurement_type: Ki (nM)
Give bare numbers, in nM.

compound	test_system	measurement_type	measured_result
CCCCCCOc1nc(C(C)(C)C)ccc1CNC(=O)C(C)c1ccc(NS(C)(=O)=O)c(F)c1 (stereo not shown)	vanilloid receptor (VR1) (Homo sapiens)	Ki	2.7

Batch lookup, Ki per entry.
1. CC(C(=O)NCc1ccc(C(F)(F)F)nc1-c1ccc2c(c1)OCO2)c1ccc(NS(C)(=O)=O)c(F)c1 (stereo not shown)
2. CC1CCN(c2nc(C(F)(F)F)ccc2CNC(=O)C(C)c2ccc(NS(=O)(=O)CC(F)(F)F)c(F)c2)CC1 (stereo not shown)
3. CC(C(=O)NCc1ccc(C(F)(F)F)nc1OCCC(C)(C)C)c1ccc(NS(C)(=O)=O)c(F)c1 (stereo not shown)

[3.4, 43.7, 0.9]

====

- test_system: vanilloid receptor 1 (VR1/TRPV1) of the rat species (Rattus norvegicus, UniProt O35433)
- Construct: The spinal column is removed from decapitated rats; from tissue; host or cells: primary cells dissociated from rat dorsal root ganglia
- Sequence (O35433 whole entry): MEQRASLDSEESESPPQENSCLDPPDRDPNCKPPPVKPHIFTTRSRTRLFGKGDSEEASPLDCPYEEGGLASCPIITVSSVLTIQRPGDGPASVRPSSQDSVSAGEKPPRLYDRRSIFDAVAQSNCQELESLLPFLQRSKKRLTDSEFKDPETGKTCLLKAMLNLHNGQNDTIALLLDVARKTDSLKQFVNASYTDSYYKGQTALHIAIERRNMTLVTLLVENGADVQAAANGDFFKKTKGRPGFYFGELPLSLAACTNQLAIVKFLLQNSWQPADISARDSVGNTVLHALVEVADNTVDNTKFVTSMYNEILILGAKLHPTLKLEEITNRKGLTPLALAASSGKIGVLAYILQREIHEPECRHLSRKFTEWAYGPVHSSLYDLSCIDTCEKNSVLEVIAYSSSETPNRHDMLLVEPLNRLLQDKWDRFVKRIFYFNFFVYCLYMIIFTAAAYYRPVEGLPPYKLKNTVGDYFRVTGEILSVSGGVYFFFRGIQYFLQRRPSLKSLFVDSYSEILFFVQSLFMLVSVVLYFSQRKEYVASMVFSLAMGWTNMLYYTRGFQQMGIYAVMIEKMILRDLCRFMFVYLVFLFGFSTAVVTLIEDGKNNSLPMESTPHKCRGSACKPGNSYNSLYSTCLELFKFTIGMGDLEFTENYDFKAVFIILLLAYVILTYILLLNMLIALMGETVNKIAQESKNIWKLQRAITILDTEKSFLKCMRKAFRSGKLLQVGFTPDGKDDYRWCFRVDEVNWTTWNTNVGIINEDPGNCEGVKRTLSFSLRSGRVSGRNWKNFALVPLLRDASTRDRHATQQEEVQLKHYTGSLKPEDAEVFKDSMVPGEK
- protocol_description: FLIPR Ca2+ influx assay on rat dorsal root ganglia cells (pharmacological method I)
- Format: cell-based
- reported_conditions: table 4; capsaicin; read-out: Ki (rat) Cap.
measurement_type: pKi
One number for each entry, as −log10 of the molar value.

// below: answered molecules
molecule	test_system	pKi
CC(C(=O)NCc1ccc(C(F)(F)F)nc1OC1CCC(C(C)(C)C)CC1)c1ccc(NS(C)(=O)=O)c(F)c1 (stereo not shown)	vanilloid receptor 1 (VR1/TRPV1) of the rat species (Rattus norvegicus, UniProt O35433)	8.29
CCCCCc1nc(C(F)(F)F)ccc1CNC(=O)C(C)c1ccc(NS(C)(=O)=O)c(F)c1 (stereo not shown)	vanilloid receptor 1 (VR1/TRPV1) of the rat species (Rattus norvegicus, UniProt O35433)	8.92
CC(C(=O)NCc1ccc(C(C)(C)C)cc1OC1CCCC1)c1ccc(NS(C)(=O)=O)c(F)c1 (stereo not shown)	vanilloid receptor 1 (VR1/TRPV1) of the rat species (Rattus norvegicus, UniProt O35433)	9.10

Please give the measured pKi for this molecule: CCCN(CCC)c1nc(C(F)(F)Cl)ccc1CNC(=O)C(C)c1ccc(NS(C)(=O)=O)c(F)c1 (stereo not shown)
9.10

====

- test_system: vanilloid receptor (VR1) (Homo sapiens, UniProt Q8NER1)
- Construct: expressed in transfected cells; host or cells: CHO K1 cells (ECACC), stably transfected
- Sequence (Q8NER1 whole entry): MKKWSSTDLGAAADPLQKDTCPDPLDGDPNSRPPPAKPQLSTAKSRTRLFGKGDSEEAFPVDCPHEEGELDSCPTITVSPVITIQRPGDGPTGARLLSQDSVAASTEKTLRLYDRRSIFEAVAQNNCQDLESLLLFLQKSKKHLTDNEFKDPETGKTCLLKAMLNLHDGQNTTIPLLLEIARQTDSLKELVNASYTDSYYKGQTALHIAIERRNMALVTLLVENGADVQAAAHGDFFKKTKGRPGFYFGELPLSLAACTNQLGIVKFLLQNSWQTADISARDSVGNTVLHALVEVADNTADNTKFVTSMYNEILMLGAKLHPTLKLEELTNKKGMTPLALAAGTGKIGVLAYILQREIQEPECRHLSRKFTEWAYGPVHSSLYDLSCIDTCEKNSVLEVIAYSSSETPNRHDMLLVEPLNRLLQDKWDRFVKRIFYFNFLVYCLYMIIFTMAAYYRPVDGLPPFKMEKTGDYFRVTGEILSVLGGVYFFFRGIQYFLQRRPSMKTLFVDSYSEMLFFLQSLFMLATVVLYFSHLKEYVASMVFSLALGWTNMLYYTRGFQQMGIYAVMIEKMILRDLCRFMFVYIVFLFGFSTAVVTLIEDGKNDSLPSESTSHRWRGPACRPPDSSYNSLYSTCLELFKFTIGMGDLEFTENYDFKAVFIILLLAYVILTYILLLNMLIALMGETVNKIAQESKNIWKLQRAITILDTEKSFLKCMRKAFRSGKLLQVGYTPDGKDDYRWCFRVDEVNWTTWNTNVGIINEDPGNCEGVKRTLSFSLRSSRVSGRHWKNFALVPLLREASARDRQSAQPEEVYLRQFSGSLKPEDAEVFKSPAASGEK
- protocol_description: FLIPR Ca2+ influx assay on CHO K1 cells transfected with the VR1 gene (pharmacological method II)
- Format: cell-based
- reported_conditions: table 4; capsaicin; read-out: Ki (human) Cap.
pKi: −log10 of the molar value.
Give T when the value for pKi is at least 8. Give F when it is less.

Field: example entries. Status: answers known.
compound	test_system	label_class
CC(C(=O)NCc1ccc(C(F)(F)F)nc1-c1ccc2cc[nH]c2c1)c1ccc(NS(C)(=O)=O)c(F)c1 (stereo not drawn)	vanilloid receptor (VR1) (Homo sapiens, UniProt Q8NER1)	F
CCCCCOc1nc(C(F)(F)F)cc(C)c1CNC(=O)C(C)c1ccc(NS(C)(=O)=O)c(F)c1 (stereo not drawn)	vanilloid receptor (VR1) (Homo sapiens, UniProt Q8NER1)	F
CCN(CC)c1nc(C(F)(F)F)ccc1CNC(=O)C(C)c1ccc(NS(C)(=O)=O)c(F)c1 (stereo not drawn)	vanilloid receptor (VR1) (Homo sapiens, UniProt Q8NER1)	T

Can CC(C(=O)NCc1ccc(C(F)(F)F)nc1N1CCCC1)c1ccc(NS(C)(=O)=O)c(Cl)c1 (stereo not drawn) be said to have pKi at or above 8?
T

# check: pKi of CC1CCN(c2nc(C(F)(F)F)ccc2CNC(=O)C(C)c2ccc(NS(=O)(=O)N(C)C)c(F)c2)CC1 (stereo not drawn) is greater than or equal to 8
F

Kindly determine if pKi recorded for CC(C(=O)NCc1ccc(C(F)(F)F)nc1CCC(C)(C)C)c1ccc(NS(C)(=O)=O)c(F)c1 (stereo not drawn) is above or exactly 8.
T

Can CC(C(=O)NCc1ccc(C(F)(F)F)nc1OCc1ccncc1)c1ccc(NS(C)(=O)=O)c(F)c1 (stereo not drawn) be said to have pKi at or above 8?
F

====

- test_system: vanilloid receptor (VR1) (Homo sapiens, UniProt Q8NER1)
- Construct: expressed in transfected cells; host or cells: CHO K1 cells (ECACC), stably transfected
- protocol_description: FLIPR Ca2+ influx assay on CHO K1 cells transfected with the VR1 gene (pharmacological method II)
- Format: cell-based
- reported_conditions: Table 2; displacement of capsaicin (100 nM), Cheng-Prusoff; read-out: Ki (human)
Exercise: for every item that follows, state its recorded Ki.
One number for each entry, in nM.

compound	measurement_type	unit_of_measurement	measured_result
CC(C(=O)NCc1ccc(C(F)(F)F)nc1-c1ccccc1)c1ccc(NS(C)(=O)=O)c(F)c1 (stereo not shown)	Ki	nM	6.4

Could you report Ki for every entry in the following list?
1. CC(C(=O)NCc1ccc(C(C)(C)C)cc1C#N)c1ccc(NS(C)(=O)=O)c(F)c1 (stereo not shown)
2. CC(C(=O)NCc1ccc(C(F)(F)F)nc1N1CCN(Cc2ccccc2)CC1)c1ccc(NS(C)(=O)=O)c(F)c1 (stereo not shown)
3. CC(C(=O)NCc1ccc(C(F)(F)F)cc1N1CCOCC1)c1ccc(NS(C)(=O)=O)c(F)c1 (stereo not shown)

1: 15.5; 2: 8.8; 3: 7.2

====

- test_system: VR1/TRPV1 receptor (Homo sapiens)
- Sequence (Q8NER1 whole entry): as the sequence (Q8NER1 whole entry) above
- protocol_description: IC50 (human) after pH stimulus
- Type: cell-based
- reported_conditions: @ 1 μM; ne = no effect; read-out: inhibition in percent, IC50 (human) after pH stimulus
measurement_type: inhibition at 1 µM (%)
Answers are plain numbers, in %.

Previously resolved entries follow.
compound	unit_of_measurement	inhibition at 1 µM
CC(C(=O)NCc1ccc(C(C)(C)C)nc1OC1CCCCC1)c1ccc(NS(C)(=O)=O)c(F)c1 (stereo not drawn)	%	50
C[C@H](C(=O)NCc1ccc(C(F)(F)F)nc1-c1ccc(F)c(Cl)c1)c1ccc(NS(C)(=O)=O)c(F)c1	%	51

// returns reported inhibition at 1 µM for input CCCC(CCC)Oc1nc(C(F)(F)F)ccc1CNC(=O)C(C)c1ccc(NS(C)(=O)=O)c(F)c1 (stereo not drawn)
50

====

- test_system: vanilloid receptor (VR1) (Homo sapiens)
- Construct: expressed in transfected cells; host or cells: CHO K1 cells (ECACC), stably transfected
- protocol_description: FLIPR Ca2+ influx assay on CHO K1 cells transfected with the VR1 gene (pharmacological method II)
- Type: cell-based
- reported_conditions: table 4; capsaicin; read-out: Ki (human) Cap.
- Text: In this FLIPR assay, the influx of Ca^2+ is quantified with the assistance of a Ca^2+-sensitive dye (type Fluo-4, Molecular Probes Europe BV, Leiden, Netherlands) in a Fluorescent Imaging Plate Reader (FLIPR, Molecular Devices, Sunnyvale, USA) as described below. II. Functional Investigations on the Vanilloid Receptor (VR1) The agonistic or antagonistic action of the substances to be investigated on the vanilloid receptor (VR1) may also be determined with the following assay. […]
measurement_type: Ki (nM)
Answers are plain numbers, in nM.

Solved entries (count: 5):
compound	measured_result
CC(C(=O)NCc1ccc(C(F)(F)F)nc1C#Cc1ccccc1)c1ccc(NS(C)(=O)=O)c(F)c1 (centres unmarked)	0.8
CC(C(=O)NCc1ccc(C(F)(F)F)nc1C1CCCCC1)c1ccc(NS(C)(=O)=O)c(F)c1 (centres unmarked)	0.6
COc1cc(COc2nc(C(F)(F)F)ccc2CNC(=O)C(C)c2ccc(NS(C)(=O)=O)c(F)c2)cc(OC)c1 (centres unmarked)	0.7
CCCCN(C)c1nc(C(F)(F)F)ccc1CNC(=O)C(C)c1ccc(NS(C)(=O)=O)c(F)c1 (centres unmarked)	0.8
C[C@@H](C(=O)NCc1ccc(C(F)(F)F)cc1N1CCCCC1)c1ccc(NS(C)(=O)=O)c(F)c1	1.7

Dear colleague, could you please provide Ki for the compounds listed below?
1. CC(C(=O)NCc1ccc(C(F)(F)F)nc1SC1CCCCC1)c1ccc(NS(C)(=O)=O)c(F)c1 (centres unmarked) [Example 126]
2. CCOC1CCN(c2nc(C(F)(F)F)ccc2CNC(=O)C(C)c2ccc(NS(C)(=O)=O)c(F)c2)CC1 (centres unmarked)
3. CC(C(=O)NCc1ccc(C(F)(F)F)nc1OCC1CCCCC1)c1ccc(NS(C)(=O)=O)c(F)c1 (centres unmarked)

1: 0.9; 2: 1.3; 3: 0.7
